# Assay Details: Solubility study of Compound (II) in lipid excipients and surfactants
# Type: physicochemical
# Assay Context: oil or lipid, thermodynamic from solid; excipient Phosal 50-PG; read-out: Limit of solubility in Phosal 50-PG
Quantity: solubility

Q. Quick one: solubility for C[C@H](CCOc1cccc(CC(=O)O)c1)N(Cc1cccc(C(F)(F)F)c1Cl)CC(c1ccccc1)c1ccccc1 [Compound (II)] ?
A. > 200 mg/mL

----------
# Assay Details: Solubility study of Compound (II) in lipid excipients and surfactants
# Type: physicochemical
# Assay Context: oil or lipid, thermodynamic from solid; excipient Labrafil M 1944 CS; read-out: Limit of solubility in Labrafil M 1944 CS
# Procedure: Compound (II) HCl and Compound (II) free base was weighed into vials and the appropriate amount of excipient was added to achieve the desired concentration. Heating and sonication was used, if necessary, to achieve clear solutions. Limits of solubility of Compound (II) free base and Compound (II) HCl (amorphous form) are noted in Table 1.
Quantity: solubility

Q. Quick one: solubility for C[C@H](CCOc1cccc(CC(=O)O)c1)N(Cc1cccc(C(F)(F)F)c1Cl)CC(c1ccccc1)c1ccccc1 [Compound (II)] ?
A. > 200 mg/mL

----------
# Assay Details: Solubility study of Compound (II) in lipid excipients and surfactants
# Assay type: physicochemical
# Assay Context: oil or lipid, thermodynamic from solid; excipient Gelucire 50/13; read-out: Limit of solubility in Gelucire 50/13
Quantity: solubility (mg/mL)
Please respond with the number in mg/mL and leave the unit unwritten.

Q. Quick one: solubility for "C[C@H](CCOc1cccc(CC(=O)O)c1)N(Cc1cccc(C(F)(F)F)c1Cl)CC(c1ccccc1)c1ccccc1" ?
A. 150

----------
# Assay Details: Solubility study of Compound (II) in lipid excipients and surfactants
# Format: physicochemical
# Assay Context: oil or lipid, thermodynamic from solid; excipient Labrafac PG; read-out: Limit of solubility in Labrafac PG
Quantity: solubility

Q. Quick one: solubility for "C[C@H](CCOc1cccc(CC(=O)O)c1)N(Cc1cccc(C(F)(F)F)c1Cl)CC(c1ccccc1)c1ccccc1" ?
A. > 200 mg/mL

----------
# Assay Details: Solubility study of Compound (II) in lipid excipients and surfactants
# Type: physicochemical
# Assay Context: organic solvent or mixture, thermodynamic from solid; excipient Ethanol; read-out: Limit of solubility in Ethanol
# Experimental: Compound (II) HCl and Compound (II) free base was weighed into vials and the appropriate amount of excipient was added to achieve the desired concentration. Heating and sonication was used, if necessary, to achieve clear solutions. Limits of solubility of Compound (II) free base and Compound (II) HCl (amorphous form) are noted in Table 1.
Quantity: solubility

Q. Quick one: solubility for "C[C@H](CCOc1cccc(CC(=O)O)c1)N(Cc1cccc(C(F)(F)F)c1Cl)CC(c1ccccc1)c1ccccc1" ?
A. > 200 mg/mL

----------
# Assay Details: Solubility study of Compound (II) in lipid excipients and surfactants
# Assay type: physicochemical
# Assay Context: oil or lipid, thermodynamic from solid; excipient Cremophor RH-40; read-out: Limit of solubility in Cremophor RH-40
Quantity: solubility

Q. Quick one: solubility for "C[C@H](CCOc1cccc(CC(=O)O)c1)N(Cc1cccc(C(F)(F)F)c1Cl)CC(c1ccccc1)c1ccccc1" ?
A. > 200 mg/mL

----------
# Assay Details: Solubility study of Compound (II) in lipid excipients and surfactants
# Type: physicochemical
# Assay Context: oil or lipid, thermodynamic from solid; excipient Capryol PGMC; read-out: Limit of solubility in Capryol PGMC
Quantity: solubility

Q. Quick one: solubility for "C[C@H](CCOc1cccc(CC(=O)O)c1)N(Cc1cccc(C(F)(F)F)c1Cl)CC(c1ccccc1)c1ccccc1" ?
A. > 200 mg/mL

Attribution: patent US11629118B2
